Known GI50 of a selection of compounds
Tested on: OVCAR-3
PROTOCOL DETAILS: NCI tumour cell line growth inhibition, 48 h
Calls of active or inactive are those of the source. Rule as the data show it: active = GI50 up to about 1.1 µM and inactive = higher.
ATTRIBUTE MEASURED: GI50

| COMPOUND | SUBJECT OF TEST | RESULT VALUE |
| --- | --- | --- |
| Cc1cc(S(=O)(=O)/N=C(\NN)NNc2cccc(C(F)(F)F)n2)c(S)cc1Cl | OVCAR-3 | 22.1 µM (inactive) |
| CCN(CC)C(=S)Oc1cc2oc(=O)cc(C)c2cc1Cl | OVCAR-3 | > 100 µM (inactive) |
| C=CC1(CC)/C(=N\O)C(CC)(CC)C(=O)N1O (stereo not drawn) | OVCAR-3 | > 100 µM (inactive) |
| CC(C)CC(NC(=O)OCc1ccccc1)C(=O)NCCCCC(N)C(=O)NC(CCCCNC(=O)C(CC(C)C)NC(=O)OCc1ccccc1)C(=O)NC(CCCCNC(=O)C(CC(C)C)NC(=O)OCc1ccccc1)C(=O)NC(CCCCNC(=O)C(CC(C)C)NC(=O)OCc1ccccc1)C(=O)NC(CCCCNC(=O)C(CC(C)C)NC(=O)OCc1ccccc1)C(=O)NC(CCCCNC(=O)C(CC(C)C)NC(=O)OCc1ccccc1)C(=O)O (stereo not drawn) | OVCAR-3 | > 100 µM (inactive) |
| O=C1OC(c2ccc(Cl)cc2)=N/C1=C\c1ccccc1 | OVCAR-3 | 42.3 µM (inactive) |
| COc1ccc2c(c1)-c1nc(=O)n(CCCN(C)C)c3ccc([N+](=O)[O-])c(c13)N2 | OVCAR-3 | 2.13 µM (inactive) |
| Cc1ccc2nc(CN3CCCC(O)C3)cc(=O)n2c1 (stereo not drawn) | OVCAR-3 | > 100 µM (inactive) |
| CC(=O)Oc1ccc2c(c1)C(=O)c1nc(C)c(C)nc1C2=O | OVCAR-3 | 21.4 µM (inactive) |

====

System: M19-MEL
PROTOCOL DETAILS: NCI tumour cell line growth inhibition, 48 h
Activity calls are given as the source filed them. No stated cut-off is given here; in the data, active = GI50 up to about 1.1 µM and inactive = higher.

| COMPOUND | GI50 |
| --- | --- |
| CC[C@@H]1C[C@@H]2CN3CCc4c([nH]c5ccc(OC)cc45)C(COC(=O)c4ccc(OC)c(OC)c4)(C2)C13 | 36 µM (inactive) |
| COC(=O)/C(=C/c1ccc(OC)cc1)C(C(=O)O)=C1CCCCC1 | > 100 µM (inactive) |
| C=CC1=C(C)/C(=C/C2=NC(=C\c3[nH]c(CC4NC(=O)C(C)/C4=C\C)c(C)c3CCC(=O)O)/C(CC(=O)O)=C2C)NC1=O (stereo not drawn) | > 100 µM (inactive) |
| CS(=O)(=O)c1ccc(-c2cc(-c3ccc(S(C)(=O)=O)cc3)[n+](-c3cc(-c4ccccc4)c([O-])c(-c4ccccc4)c3)c(-c3ccc(S(C)(=O)=O)cc3)c2)cc1 | > 100 µM (inactive) |
| O=P(CCOc1ccccc1OCCP(=O)(c1ccccc1)c1ccc2c(c1)OCCOCCOCCOCCO2)(c1ccccc1)c1ccc2c(c1)OCCOCCOCCOCCO2 (stereo not drawn) | > 100 µM (inactive) |
| COC(=O)c1c(-c2cc(OC)c(OC)c(OC)c2)oc2ccccc2c1=O | > 100 µM (inactive) |
| O=[N+]([O-])c1ccc(Cl)c(C2SCc3nc4ccccc4n32)c1 (stereo not drawn) | 29.6 µM (inactive) |
| O=C(CC1(O)C(=O)Nc2ccccc21)c1ccc(F)cc1 (stereo not drawn) | > 100 µM (inactive) |
